Every entry's value here was drawn from patent US10124004B2.

# study-target: CDK4/cyclin D3 (Homo sapiens, UniProt P11802)
# Construct: purchased Carna Biosciences, Inc. QS S Assist CDK4/Cyclin D3_FP Kit
# Sequence (P11802 whole entry): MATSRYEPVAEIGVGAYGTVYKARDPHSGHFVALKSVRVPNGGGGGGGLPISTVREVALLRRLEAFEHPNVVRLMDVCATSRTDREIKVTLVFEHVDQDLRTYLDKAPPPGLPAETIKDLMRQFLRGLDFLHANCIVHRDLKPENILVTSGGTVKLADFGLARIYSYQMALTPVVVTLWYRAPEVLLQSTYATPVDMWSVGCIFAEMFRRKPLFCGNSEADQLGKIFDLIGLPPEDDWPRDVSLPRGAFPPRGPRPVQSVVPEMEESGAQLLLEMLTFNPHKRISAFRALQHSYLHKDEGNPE
# Sequence (P30281 whole entry partner): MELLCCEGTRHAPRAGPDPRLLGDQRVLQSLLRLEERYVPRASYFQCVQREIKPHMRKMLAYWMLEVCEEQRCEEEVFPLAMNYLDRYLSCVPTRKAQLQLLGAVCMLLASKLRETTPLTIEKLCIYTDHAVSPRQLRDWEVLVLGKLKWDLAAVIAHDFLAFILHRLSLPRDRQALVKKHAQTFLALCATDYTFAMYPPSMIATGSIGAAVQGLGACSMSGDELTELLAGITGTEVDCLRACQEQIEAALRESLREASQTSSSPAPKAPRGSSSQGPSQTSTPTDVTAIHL
# assay-text: Human CDK4/cyclin D3 inhibitory activity (QS S Assist CDK4/Cyclin D3_FP Kit, IMAP fluorescence polarization)
# Format: biochemical
# experimental-setup: Human CDK4/cyclin D3 inhibitory activity; read-out: CDK4 Activity symbol
IC50 values, listed per item

Example cases with answers are listed next.
Task: Look up IC50: CC(C)Nc1nc([C@@H](C)O)c(F)c2cnc(Nc3ccc(N4CCNCC4)cn3)nc12
Output: < 10 nM

Task: For CO[C@H](C)c1cc2cnc(Nc3ccc(N4CCC(O)CC4)nn3)nc2c(NC(C)C)n1 then?
Output: 10 to 100 nM

Task: For CC(C)Nc1nc(C(F)F)cc2cnc(Nc3ccc(CCC(N)=O)cn3)nc12 then?
Output: < 10 nM

Task: For CNC1(C)CCN(c2ccc(Nc3ncc4cc([C@@H](C)O)nc(NC(C)C)c4n3)nn2)CC1 then?
Output: < 10 nM

Task: For CC(C)Nc1nc(C(F)F)cc2cnc(Nc3ccc(N4CCNC(C)(C)C4=O)cn3)nc12 then?
Output: < 10 nM

# context switch: different compound, same IC50
Task: Look up IC50: CC(C)Nc1nc(C(F)F)cc2cnc(Nc3ccc(N4CCNCC4)c(F)n3)nc12
Output: < 10 nM
